Where do the numbers come from? From ChEMBL document CHEMBL2062523.

Tested on: Pseudomonas aeruginosa
protocol-description: Agonist activity at Pseudomonas aeruginosa QSIS2 LasR-mediated quorum sensing co-expressing SacB1 assessed as luminescence at 0.1 mM after 24 hrs by reporter gene assay
Assay type: functional
Calls of active or inactive are those of the source. No cut-off for these calls is given here.
property: Activity

compound	result
CCCCCCc1cn(C2CCOC2=O)nn1 (centres undefined)	inactive
O=C1OCCC1n1cc(Cc2ccccc2)nn1 (centres undefined)	19.1%
CCCCCCCc1cn(C2CCOC2=O)nn1 (centres undefined)	inactive
CCCCc1cn(C2CCOC2=O)nn1 (centres undefined)	inactive

----------
Measured Activity, listed per entry for reference.
tgt: Transcriptional activator protein LuxR (Aliivibrio fischeri)
protocol-description: Agonist activity at Vibrio fischeri LuxR-mediated quorum sensing expressed in Escherichia coli JB523 assessed as GFP expression at 0.5 mM after 24 hrs by reporter gene assay
Assay type: functional

Before answering, review these 2 worked examples.
compound	tgt	Activity
CCCCCCCCc1cn(C2CCOC2=O)nn1 (centres undefined)	Transcriptional activator protein LuxR (Aliivibrio fischeri)	5.2%
CCCCCc1cn(C2CCOC2=O)nn1 (centres undefined)	Transcriptional activator protein LuxR (Aliivibrio fischeri)	16.3%

Consider the additional compound presented here.
### Prompt Give Activity for the following compound: CCCCCCc1cn(C2CCOC2=O)nn1 (centres undefined)
### Response 17.5%
